- Tgt: T1, human α-CGRP (Homo sapiens, UniProt P06881)
- T1 construct: 1-37 (WT); purchased GenScript Corporation or Global Peptide Services
- T1 sequence (P06881 83-119 limits assumed): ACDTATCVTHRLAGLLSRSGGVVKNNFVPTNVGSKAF
- Protocol summary: Biacore SPR affinity of Fab fragments to N-biotinylated human α-CGRP on SA chip
- Format: binding
- Settings: 37° C., screening mode except underlined values
Assay metric: α-human koff
Write the figure, then the unit, nothing else.

For the molecule M80: G1 variant; L1 R28N T30S; L2 L561; H2 E54K A57N; S58V (printed in L1 column); HC-FW3 L99T A100V (antibody, V domains shown) VH: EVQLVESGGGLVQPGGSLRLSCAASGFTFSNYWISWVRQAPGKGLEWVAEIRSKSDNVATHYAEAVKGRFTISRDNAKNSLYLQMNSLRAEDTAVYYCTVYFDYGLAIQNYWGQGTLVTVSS VL: EIVLTQSPATLSLSPGERATLSCKASKNVSTYVSWYQQKPGQAPRLLIYGASNRYIGIPARFSGSGSGTDFTLTISSLEPEDFAVYYCSQSYNYPYTFGQGTKLEIK , what α-human koff is on record?
0.00209 s⁻¹

The reported numbers originate from patent US20190071490A1.
